Tested on: CP192
measurementNotes: qHTS profiling for inhibitors of Plasmodium falciparum proliferation (AID 504749); further: nearly all actives have a fitted effect of over 60% in size
conditionContext: P. falciparum in erythrocytes, SYBR Green DNA, 72 h; series mostly up to 28.7 µM
Results filed as inconclusive are left out. The source made the active and inactive calls. The call rests on the fitted dose curve; in most records, active means well fitted inhibition curve with a large enough effect; inconclusive means small, poorly fitted or top-dose-only effect; inactive means flat fitted curve, though single readings scatter.
Output constraint: value belongs to active, inactive

stdin: Assay outcome for COc1cccc2c1C(=O)c1c(O)c3c(c(O)c1C2=O)C[C@@](O)(C(=O)CO)C[C@@H]3O[C@H]1C[C@H](N)[C@H](OC2CCCCO2)[C@H](C)O1 (some centres undefined) : what was it?
stdout: active

stdin: Assay outcome for OCC(O)C(O)C(O)CO (centres undefined) : what was it?
stdout: inactive

stdin: Assay outcome for COc1ccc2c(c1OC)C(=O)OC2[C@H]1c2c(cc3c(c2OC)OCO3)CCN1C (some centres undefined) : what was it?
stdout: inactive

stdin: Assay outcome for CCCCCCCCCCCC(CC1OC(=O)C1CCCCCC)OC(=O)C(CC(C)C)NC=O (centres undefined) : what was it?
stdout: inactive
